Assay System: HIV-1 protease (Q7S) (Human immunodeficiency virus type 1 group M subtype B, UniProt P04585, Q495S)
Construct: made in house
Protocol: HIV-1 Protease RET Assay
Assay type: biochemical
Test Parameters: Ave. Ki (nM), RET assay, Q7S enzyme, pH 4.8, 37 C
Recorded Ki values for a group of compounds are listed next.
Assay Endpoint: Ki (nM)

> print(dat)
                                   compound  assay.endpoint  unit.text  relation.sign  numeric.readout
1  Cc1c(O)cccc1C(=O)N[C@@H](Cc1ccccc1)[C@H](O)C(=O)N1CSC(C)(C)[C@H]1C(=O)N[C@@H](C)c1ccccc1              Ki         nM              =             0.13
2  COc1ccccc1CNC(=O)[C@H]1N(C(=O)C(O)C(Cc2ccccc2)NC(=O)c2cccc(O)c2C)CSC1(C)C (stereo partly shown)              Ki         nM              =              1.7
3  C/C=C/CNC(=O)[C@H]1N(C(=O)[C@@H](O)[C@H](Cc2ccccc2)NC(=O)c2cccc(O)c2C)CSC1(C)C              Ki         nM              =             0.17
4  C#CCNC(=O)[C@H]1N(C(=O)[C@@H](O)[C@H](Cc2ccccc2)NC(=O)c2cccc(O)c2C)CSC1(C)C              Ki         nM              <              0.1
5  Cc1ccccc1CNC(=O)C1N(C(=O)C(O)C(Cc2ccccc2)NC(=O)C2=NNC(=O)CC2)CSC1(C)C (stereo not shown)              Ki         nM              =             0.29
6  C=CCNC(=O)[C@H]1N(C(=O)[C@@H](O)[C@H](Cc2ccccc2)NC(=O)c2ccc(C)c(O)c2C)CSC1(C)C              Ki         nM              =              2.1
7  COc1ccc(CNC(=O)[C@H]2N(C(=O)[C@@H](O)[C@H](Cc3ccccc3)NC(=O)c3cccc(O)c3C)CSC2(C)C)cc1              Ki         nM              =             0.22

---

Assay System: HIV-1 protease (Q7S) (Human immunodeficiency virus type 1 group M subtype B, UniProt P04585, Q495S)
Construct: made in house
Protocol: HIV-1 Protease RET Assay
Format: biochemical
Test Parameters: RET assay, Q7S enzyme, pH 4.8, 37 C; read-out: Ave. Ki
Assay Endpoint: Ki (nM)

> print(dat)
                                   compound  assay.endpoint  unit.text  relation.sign  numeric.readout
1  Cc1ccccc1CNC(=O)C1N(C(=O)[C@@H](O)[C@H](Cc2ccccc2)NC(=O)c2ccc(O)cn2)CSC1(C)C (stereo partly shown)              Ki         nM              =             12.5
2  Cc1ccccc1CNC(=O)[C@@H]1CC(F)(F)CN1C(=O)[C@@H](O)[C@H](Cc1ccccc1)NC(=O)c1cccc(O)c1C              Ki         nM              =             0.38
3  Cc1c(O)cccc1C(=O)N[C@@H](Cc1ccccc1)[C@H](O)C(=O)N1CSC(C)(C)[C@H]1C(=O)NCc1ccc2c(c1)OCO2              Ki         nM              =             0.32
4  C=CCCC(=O)[C@H]1N(C(=O)[C@@H](O)[C@H](Cc2ccccc2)NC(=O)c2cccc(O)c2C)CSC1(C)C [Example D1]              Ki         nM              <             0.01
